Give measured relative viability for each item. Keep answers brief.
Test system: COR-L 105
Test: relative viability (nuclei count vs DMSO), 5 days (fraction); higher = more cells survive
Settings: first compound 0.5 µM
Numbers only.

COc1cc2nccc(Oc3ccc(NC(=O)Nc4cc(C)on4)c(Cl)c3)c2cc1OC [Tivozanib] + CC(C)C[C@H](NC(=O)[C@H](Cc1ccccc1)NC(=O)c1cnccn1)B(O)O [Bortezomib] (partner 0.002 µM); 0.681
Nc1ccn([C@@H]2O[C@H](CO)[C@@H](O)[C@@H]2O)c(=O)n1 [Cytarabine] + Cc1cc(Nc2cc(N3CCN(C)CC3)nc(Sc3ccc(NC(=O)C4CC4)cc3)n2)n[nH]1 [Tozasertib] (partner 0.1 µM); 0.334
COc1cc2nccc(Oc3ccc(NC(=O)Nc4cc(C)on4)c(Cl)c3)c2cc1OC [Tivozanib] + CS(=O)(=O)CCNCc1ccc(-c2ccc3ncnc(Nc4ccc(OCc5cccc(F)c5)c(Cl)c4)c3c2)o1 [Lapatinib] (partner 2 µM); 0.339
Nc1ccn([C@@H]2O[C@H](CO)[C@@H](O)[C@@H]2O)c(=O)n1 [Cytarabine] + C[C@@H](Oc1cc(-c2cnn(C3CCNCC3)c2)cnc1N)c1c(Cl)ccc(F)c1Cl [Crizotinib] (partner 1 µM); 0.256
Nc1ccn([C@@H]2O[C@H](CO)[C@@H](O)[C@@H]2O)c(=O)n1 [Cytarabine] + CS(=O)(=O)N1CCN(Cc2cc3nc(-c4cccc5[nH]ncc45)nc(N4CCOCC4)c3s2)CC1 [Pictilisib] (partner 1 µM); 0.242
Nc1ccn([C@@H]2O[C@H](CO)[C@@H](O)[C@@H]2O)c(=O)n1 [Cytarabine] + COc1cc2c(Oc3ccc(NC(=O)C4(C(=O)Nc5ccc(F)cc5)CC4)cc3F)ccnc2cc1OCCCN1CCOCC1 [Foretinib] (partner 0.25 µM); 0.438

For each of the molecules below, state relative viability.
1. COc1cc2nccc(Oc3ccc(NC(=O)Nc4cc(C)on4)c(Cl)c3)c2cc1OC [Tivozanib] + N=C(N)NC(=N)NCCc1ccccc1 [Phenformin] (partner 250 µM)
2. Nc1ccn([C@@H]2O[C@H](CO)[C@@H](O)[C@@H]2O)c(=O)n1 [Cytarabine] + Nc1ncn([C@H]2C[C@H](O)[C@@H](CO)O2)c(=O)n1 [Decitabine] (partner 2 µM)

[out]
1: 0.43; 2: 0.303

* * *

Test system: NCI-H441
Assay: relative viability (nuclei count vs DMSO), 5 days (fraction); higher = more cells survive
Conditions: first compound 0.253 µM
Give measured relative viability for each item. Keep answers brief.
One number for each entry.

Take a look at these entries with their results.
O=c1[nH]c2ccccc2n1C1CCN(CCCC(c2ccc(F)cc2)c2ccc(F)cc2)CC1 [Pimozide] + C[C@]1(O)C[C@@H](c2nc(-c3ccc4ccc(-c5ccccc5)nc4c3)c3c(N)nccn32)C1 [Linsitinib] (partner 1 µM); 0.53
Cc1cnc(-c2cnc(NCCNc3ccc(C#N)cn3)nc2-c2ccc(Cl)cc2Cl)[nH]1 + C[C@]1(O)C[C@@H](c2nc(-c3ccc4ccc(-c5ccccc5)nc4c3)c3c(N)nccn32)C1 [Linsitinib] (partner 1 µM); 0.445

For each of the compounds below, state relative viability.
1. O=c1[nH]c2ccccc2n1C1CCN(CCCC(c2ccc(F)cc2)c2ccc(F)cc2)CC1 [Pimozide] + COc1cc2c(Oc3ccc(NC(=O)C4(C(=O)Nc5ccc(F)cc5)CC4)cc3F)ccnc2cc1OCCCN1CCOCC1 [Foretinib] (partner 0.25 µM)
2. O=c1[nH]c2ccccc2n1C1CCN(CCCC(c2ccc(F)cc2)c2ccc(F)cc2)CC1 [Pimozide] + COc1cccc2cc(-c3nc([C@H]4CC[C@H](C(=O)O)CC4)n4ncnc(N)c34)[nH]c12 [OSI-027] (partner 0.5 µM)

[out]
[1.16, 0.577]

* * *

Tested on: NCI-H358
Assay: relative viability (nuclei count vs DMSO), 5 days (fraction); higher = more cells survive
Details: first compound 2.53 µM
OBSERVABLE: relative viability
Answers are plain numbers.

For each of the compounds below, state relative viability.
1. Cc1cnc(-c2cnc(NCCNc3ccc(C#N)cn3)nc2-c2ccc(Cl)cc2Cl)[nH]1 + NC(=O)Nc1cc(-c2cccc(F)c2)sc1C(=O)N[C@H]1CCCNC1 [AZD7762] (partner 0.2 µM)
2. O=c1[nH]c2ccccc2n1C1CCN(CCCC(c2ccc(F)cc2)c2ccc(F)cc2)CC1 [Pimozide] + N=C(N)NC(=N)NCCc1ccccc1 [Phenformin] (partner 250 µM)

[out]
[0.47, 0.313]

[in] Which relative viability is reported for this compound? O=c1[nH]c2ccccc2n1C1CCN(CCCC(c2ccc(F)cc2)c2ccc(F)cc2)CC1 [Pimozide] + CC(=O)c1c(C)c2cnc(Nc3ccc(N4CCNCC4)cn3)nc2n(C2CCCC2)c1=O [Palbociclib] (partner 0.5 µM)
[out] 0.147

* * *

Test system: NCI-H2023
Assay: relative viability (nuclei count vs DMSO), 5 days (fraction); higher = more cells survive
Settings: first compound 0.05 µM
OBSERVABLE: relative viability
Answers are plain numbers.

Take a look at these entries with their results.
Nc1ccn([C@@H]2O[C@H](CO)[C@@H](O)[C@@H]2O)c(=O)n1 [Cytarabine] + Cc1nc(Nc2ncc(C(=O)Nc3c(C)cccc3Cl)s2)cc(N2CCN(CCO)CC2)n1 [Dasatinib] (partner 0.075 µM); 0.145
Nc1ccn([C@@H]2O[C@H](CO)[C@@H](O)[C@@H]2O)c(=O)n1 [Cytarabine] + C[C@]1(O)C[C@@H](c2nc(-c3ccc4ccc(-c5ccccc5)nc4c3)c3c(N)nccn32)C1 [Linsitinib] (partner 1 µM); 0.149
Nc1ccn([C@@H]2O[C@H](CO)[C@@H](O)[C@@H]2O)c(=O)n1 [Cytarabine] + O=C(c1cc(Cc2n[nH]c(=O)c3ccccc23)ccc1F)N1CCN(C(=O)C2CC2)CC1 [Olaparib] (partner 8 µM); 0.236
Nc1ccn([C@@H]2O[C@H](CO)[C@@H](O)[C@@H]2O)c(=O)n1 [Cytarabine] + COc1cccc2cc(-c3nc([C@H]4CC[C@H](C(=O)O)CC4)n4ncnc(N)c34)[nH]c12 [OSI-027] (partner 0.5 µM); 0.107

For the next question, use this compound.
[in] Which relative viability is reported for this compound? COc1cc2nccc(Oc3ccc(NC(=O)Nc4cc(C)on4)c(Cl)c3)c2cc1OC [Tivozanib] + Cc1cc(Nc2cc(N3CCN(C)CC3)nc(Sc3ccc(NC(=O)C4CC4)cc3)n2)n[nH]1 [Tozasertib] (partner 0.1 µM)
[out] 0.405

* * *

Give measured relative viability for each item. Keep answers brief.
System: NCI-H2228
Assay: relative viability (nuclei count vs DMSO), 5 days (fraction); higher = more cells survive
Settings: first compound 0.1265 µM

Take a look at these entries with their results.
Cc1sc2c(c1C)C(c1ccc(Cl)cc1)=N[C@@H](CC(=O)OC(C)(C)C)c1nnc(C)n1-2 [JQ1] + CC(=O)Nc1cccc(-n2c(=O)n(C3CC3)c(=O)c3c(Nc4ccc(I)cc4F)n(C)c(=O)c(C)c32)c1 [Trametinib] (partner 0.02 µM); 0.396
Cc1sc2c(c1C)C(c1ccc(Cl)cc1)=N[C@@H](CC(=O)OC(C)(C)C)c1nnc(C)n1-2 [JQ1] + Cc1cc(Nc2cc(N3CCN(C)CC3)nc(Sc3ccc(NC(=O)C4CC4)cc3)n2)n[nH]1 [Tozasertib] (partner 0.1 µM); 0.284
Cc1sc2c(c1C)C(c1ccc(Cl)cc1)=N[C@@H](CC(=O)OC(C)(C)C)c1nnc(C)n1-2 [JQ1] + COc1cccc2cc(-c3nc([C@H]4CC[C@H](C(=O)O)CC4)n4ncnc(N)c34)[nH]c12 [OSI-027] (partner 0.5 µM); 0.657

For the next question, use this compound.
[in] Which relative viability is reported for this compound? Cc1sc2c(c1C)C(c1ccc(Cl)cc1)=N[C@@H](CC(=O)OC(C)(C)C)c1nnc(C)n1-2 [JQ1] + CC(C)C[C@H](NC(=O)[C@H](Cc1ccccc1)NC(=O)c1cnccn1)B(O)O [Bortezomib] (partner 0.002 µM)
[out] 0.918

* * *

Tested on: NCI-H1915
Assay: relative viability (nuclei count vs DMSO), 5 days (fraction); higher = more cells survive
Conditions: first compound 0.000632 µM
OBSERVABLE: relative viability

[in] Which relative viability is reported for this compound? CC(=O)O[C@@]12CO[C@@H]1C[C@H](O)[C@@]1(C)C(=O)[C@H](O)C3=C(C)[C@@H](OC(=O)[C@H](O)[C@@H](NC(=O)OC(C)(C)C)c4ccccc4)C[C@@](O)([C@@H](OC(=O)c4ccccc4)[C@H]21)C3(C)C [Docetaxel] + O=C(CCCCCCC(=O)Nc1ccccc1)NO [Vorinostat] (partner 1 µM)
[out] 0.258

* * *

System: A-427
Experiment: relative viability (nuclei count vs DMSO), 5 days (fraction); higher = more cells survive
Conditions: first compound 0.8 µM
Give measured relative viability for each item. Keep answers brief.
Numbers only.

O=c1[nH]c2ccccc2n1C1CCN(CCCC(c2ccc(F)cc2)c2ccc(F)cc2)CC1 [Pimozide] + N=C(N)NC(=N)NCCc1ccccc1 [Phenformin] (partner 250 µM); 0.36
Cc1cnc(-c2cnc(NCCNc3ccc(C#N)cn3)nc2-c2ccc(Cl)cc2Cl)[nH]1 + Nc1ncn([C@H]2C[C@H](O)[C@@H](CO)O2)c(=O)n1 [Decitabine] (partner 2 µM); 0.61
O=c1[nH]c2ccccc2n1C1CCN(CCCC(c2ccc(F)cc2)c2ccc(F)cc2)CC1 [Pimozide] + Nc1ncn([C@H]2C[C@H](O)[C@@H](CO)O2)c(=O)n1 [Decitabine] (partner 2 µM); 0.606
Cc1cnc(-c2cnc(NCCNc3ccc(C#N)cn3)nc2-c2ccc(Cl)cc2Cl)[nH]1 + Nc1nc2[nH]cc(CCc3ccc(C(=O)N[C@@H](CCC(=O)O)C(=O)O)cc3)c2c(=O)[nH]1 [Pemetrexed] (partner 0.2 µM); 0.928

[in] Which relative viability is reported for this compound? O=c1[nH]c2ccccc2n1C1CCN(CCCC(c2ccc(F)cc2)c2ccc(F)cc2)CC1 [Pimozide] + Cc1cc(Nc2cc(N3CCN(C)CC3)nc(Sc3ccc(NC(=O)C4CC4)cc3)n2)n[nH]1 [Tozasertib] (partner 0.1 µM)
[out] 0.222
